Reference source: patent US9926304B2

System: SW620 human colorectal cancer cells
Test: MTT based cell viability assay: potentiation of the growth inhibiting activity of MMS
Conditions: Homo sapiens, SW-620, 120 h, read-out: IC50 (nM), potentiation of the growth inhibiting activity of MMS, SW620 cells, 1.7 μg/ml MMS, 5 days (120 hours), MTT
parameter: IC50 (nM)
Provide the reading as a plain figure in nM.

Illustrative cases are given below, each with its answer.
O=C(c1cccc(Cn2c(=O)[nH]c(=O)c3cc(F)ccc32)n1)N1CCN(c2ncccn2)CC1 [Example 199] : 19
O=C(c1cccc(Cn2c(=O)[nH]c(=O)c3ccccc32)c1)N1CCN(C(=O)c2ccco2)CC1 [Example 33] : 130

Entry CCS(=O)(=O)N1CCN(C(=O)c2cccc(Cn3c(=O)[nH]c(=O)c4ccccc43)c2)CC1 [Example 16] , IC50 reported as 7260

Entry O=C(c1cccc(Cn2c(=O)[nH]c(=O)c3cc(F)ccc32)c1)N1CCN(c2ccccn2)CC1 [Example 140] , IC50 reported as 37

----------
System: SW620 human colorectal cancer cells
Assay: MTT based cell viability assay: potentiation of the growth inhibiting activity of MMS
Settings: Homo sapiens, SW-620, 120 h, read-out: IC50 (nM), potentiation of the growth inhibiting activity of MMS, SW620 cells, 1.7 μg/ml MMS, 5 days (120 hours), MTT
Quick reference: IC50 of the listed items.

O=C(c1cc(Cn2c(=O)[nH]c(=O)c3c(F)cccc32)ccc1[N+](=O)[O-])N1CCN(c2ncccn2)CC1 [Example 211] : 145 nM
O=C(c1cc(Cn2c(=O)[nH]c(=O)c3ccccc32)ccc1F)N1CCN(c2ccccn2)CC1 [Example 24] : 26 nM
CC(=O)N1CCN(C(=O)c2cccc(Cn3c(=O)[nH]c(=O)c4ccccc43)c2)CC1 [Example 17] : > 10000 nM

Entry O=C(c1ccc(Cn2c(=O)[nH]c(=O)c3ccccc32)o1)N1CCN(C(=O)C2CCCC2)CC1 [Example 67] , IC50 reported as 2050 nM

----------
System: SW620 human colorectal cancer cells
Assay: MTT based cell viability assay: potentiation of the growth inhibiting activity of MMS
Conditions: Homo sapiens, SW-620, 120 h, read-out: IC50 (nM), potentiation of the growth inhibiting activity of MMS, SW620 cells, 1.7 μg/ml MMS, 5 days (120 hours), MTT
parameter: IC50 (nM)
Provide the reading as a plain figure in nM.

Illustrative cases are given below, each with its answer.
O=C(c1ccc(F)c(Cn2c(=O)[nH]c(=O)c3c(F)cccc32)c1)N1CCN(C(=O)C2CCC2)CC1 : 16
O=C(c1ccc(F)c(Cn2c(=O)[nH]c(=O)c3cc(Cl)ccc32)c1)N1CCN(C(=O)c2cccs2)CC1 : 18

Entry O=C(c1cccc(Cn2c(=O)[nH]c(=O)c3cc(F)ccc32)c1)N1CCN(c2ncccn2)CC1 , IC50 reported as 16

Entry O=C(c1ccc(F)c(Cn2c(=O)[nH]c(=O)c3cc(F)ccc32)c1)N1CCN(c2ncccn2)CC1 , IC50 reported as 14

Entry Cc1ccc2c(c1)c(=O)[nH]c(=O)n2Cc1ccc(F)c(C(=O)N2CCN(c3ncccn3)CC2)c1 , IC50 reported as 72

Entry O=C(c1cccc(Cn2c(=O)[nH]c(=O)c3cc(Br)ccc32)c1)N1CCN(C(=O)C2CCCCC2)CC1 , IC50 reported as 86
